test: Stability evaluation in aqueous buffer; assay type: physicochemical; settings: aqueous buffer; pH 4 (acetate buffer), 37° C., about 50 μg/mL, about 15% v/v acetonitrile; read-out: Stability (t1/2, h) at 37° C. pH 4 (converted)
measurement_type: half-life

Suppose we examine the compound COc1cc(C(=O)OCOC(=O)n2c(-c3cn4ncnc4c(C)c3C)c(C(C)C)c3cc(C4CCN(CC(N)=O)CC4)ccc32)ccc1OP(=O)(O)O ; what half-life value has been reported?
> 500 h

====

assay: Stability evaluation in aqueous buffer; type: physicochemical; settings: aqueous buffer; pH 6.5 (phosphate buffer), 37° C., about 50 μg/mL, about 15% v/v acetonitrile; read-out: Stability (t1/2, h) at 37° C. pH 6.5 (converted)
measurement_type: half-life

Suppose we examine the compound COc1cc(C(=O)OCOC(=O)n2c(-c3cn4ncnc4c(C)c3C)c(C(C)C)c3cc(C4CCN(CC(N)=O)CC4)ccc32)ccc1OP(=O)(O)O [Example 22] ; what half-life value has been reported?
> 500 h

====

experiment: Stability evaluation in aqueous buffer; format: physicochemical; conditions: aqueous buffer; pH 1 (0.1 M HCl), 37° C., about 50 μg/mL, about 15% v/v acetonitrile; read-out: Stability (t1/2, h) at 37° C. pH 1 (converted)
measurement_type: half-life (h)
Return type: number; implicit unit h.

Suppose we examine the molecule COc1cc(C(=O)OCOC(=O)n2c(-c3cn4ncnc4c(C)c3C)c(C(C)C)c3cc(C4CCN(CC(N)=O)CC4)ccc32)ccc1OP(=O)(O)O ; what half-life value has been reported?
400

====

test: Stability evaluation in aqueous buffer; type: physicochemical; details: aqueous buffer, pH 6.5, pH 6.5 (phosphate buffer), 37° C., about 50 μg/mL, about 15% v/v acetonitrile; read-out: Stability (t1/2, h) at 37° C. pH 6.5 (converted)
Where a name gives a salt, the structure may show the parent alone.
Classification field: true (1) = half-life at or over 6 h; false (0) = half-life under 6 h.

Illustrative cases are given below, each with its answer.
Cc1c(-c2[nH]c3ccc(C4CCN(CC(N)=O)CC4)cc3c2C(C)C)cn2nc[n+](COP(=O)(O)O)c2c1C (single isomer, unassigned) [Example 8, trifluoroacetate] :: true (1)
Cc1c(-c2c(C(C)C)c3cc(C4CCN(CC(N)=O)CC4)ccc3n2C(=O)CCCOP(=O)(O)O)cn2ncnc2c1C [Example 10] :: true (1)
Cc1c(-c2c(C(C)C)c3cc(C4CCN(CC(N)=O)CC4)ccc3n2C(=O)CN(C)C(=O)OCOP(=O)(O)O)cn2ncnc2c1C [Example 19] :: true (1)
CNCC(=O)OCc1cccnc1N(C)C(=O)OC(C)[N+]1(CC(N)=O)CCC(c2ccc3[nH]c(-c4cn5ncnc5c(C)c4C)c(C(C)C)c3c2)CC1 (stereo not shown) [Example 14] :: false (0)
Cc1c(-c2c(C(C)C)c3cc(C4CCN(CC(N)=O)CC4)ccc3n2SC[C@H](N)C(=O)O)cn2ncnc2c1C [Example 11] :: true (1)
Cc1c(-c2c(C(C)C)c3cc(C4CCN(CC(N)=O)CC4)ccc3n2P(=O)(O)O)cn2ncnc2c1C [Example 18] :: true (1)

Now, please, on to the next compound.
Does the compound Cc1c(-c2[nH]c3ccc(C4CC[N+](COP(=O)(O)O)(CC(N)=O)CC4)cc3c2C(C)C)cn2ncnc2c1C (single isomer, unassigned) [Example 9, trifluoroacetate] have recorded half-life that is 6 h or more?
true (1)

====

Parameter: half-life. Scope: all listed entries.
assay: Stability evaluation in aqueous buffer; type: physicochemical; conditions: aqueous buffer, pH 1, pH 1 (0.1 M HCl), 37° C., about 50 μg/mL, about 15% v/v acetonitrile; read-out: Stability (t1/2, h) at 37° C. pH 1 (converted)
Structures can show the parent of a compound that is named as a salt.

Guide cases for half-life, answers given:
CCOC(=O)n1c(-c2cn3ncnc3c(C)c2C)c(C(C)C)c2cc(C3CCN(CC(N)=O)CC3)ccc21 [Example 24] :: > 500 h
Cc1c(-c2c(C(C)C)c3cc(C4CCN(CC(N)=O)CC4)ccc3n2C(=O)OC(C)OC(=O)C2(N)CC2)cn2ncnc2c1C (single isomer, unassigned) [Example 6, ditrifluoroacetate] :: > 500 h
Cc1c(-c2c(C(C)C)c3cc(C4CCN(CC(N)=O)CC4)ccc3n2C(=O)OCOC(=O)C2(N)CC2)cn2ncnc2c1C [Example 15, trifluoroacetate] :: 347 h
Cc1c(-c2c(C(C)C)c3cc(C4CCN(CC(N)=O)CC4)ccc3n2C(=O)OC[C@@H]2CCCN2)cn2ncnc2c1C [Example 3] :: > 500 h
Cc1c(-c2c(C(C)C)c3cc(C4CCN(CC(N)=O)CC4)ccc3n2C(=O)OCOP(=O)(O)O)cn2ncnc2c1C [Example 16] :: 80 h

Attention now shifts to the item below.
Suppose we examine the compound CNCC(=O)n1c(-c2cn3ncnc3c(C)c2C)c(C(C)C)c2cc(C3CCN(CC(N)=O)CC3)ccc21 [Example 5, ditrifluoroacetate] ; what half-life value has been reported?
> 500 h

====

Parameter: half-life at 5 mM. Scope: all listed entries.
tested on: rat rIALP; assay: Recombinant intestinal alkaline phosphatase (rIALP) assay, rat; type: in vitro ADME; settings: 100 mM Tris-HCl buffer pH 7.4, 37° C., 120 minutes incubation, read-out: t1/2 in rat rIALP
Structures can show the parent of a compound that is named as a salt.

Cc1c(-c2[nH]c3ccc(C4CCN(CC(N)=O)CC4)cc3c2C(C)C)cn2nc[n+](COP(=O)(O)O)c2c1C (single isomer, unassigned) [Example 8, trifluoroacetate] :: < 5 min

Quick check: half-life at 5 mM on rat rIALP, item Cc1c(-c2[nH]c3ccc(C4CC[N+](COP(=O)(O)O)(CC(N)=O)CC4)cc3c2C(C)C)cn2ncnc2c1C (single isomer, unassigned) [Example 9, trifluoroacetate] ?
< 5 min

====

Parameter: solubility. Scope: all listed entries.
experiment: Solubility evaluation in aqueous buffer; format: physicochemical; conditions: aqueous buffer, 25 °C, pH 1, simulated gastric fluid, thermodynamic from solid, aqueous buffer pH 1, 25° C., about 24 hours equilibration; read-out: Solubility (mg/mL) at 25° C. pH 1
Where a name gives a salt, the structure may show the parent alone.

Guide cases for solubility, answers given:
Cc1c(-c2c(C(C)C)c3cc(C4CCN(CC(N)=O)CC4)ccc3n2C(=O)CN(C)C(=O)OCOP(=O)(O)O)cn2ncnc2c1C :: > 1.09 mg/mL
Cc1c(-c2[nH]c3ccc(C4CCN(CC(N)=O)CC4)cc3c2C(C)C)cn2nc[n+](COC(=O)N(C)CCOP(=O)(O)O)c2c1C (single isomer, unassigned) [Example 21, trifluoroacetate] :: > 1.75 mg/mL
Cc1c(-c2c(C(C)C)c3cc(C4CCN(CC(N)=O)CC4)ccc3n2C(=O)CCCOP(=O)(O)O)cn2ncnc2c1C :: 0.43 mg/mL

Suppose we examine the compound CNCCN(C)C(=O)OC[N+]1(CC(N)=O)CCC(c2ccc3[nH]c(-c4cn5ncnc5c(C)c4C)c(C(C)C)c3c2)CC1 (stereo not drawn) [Example 23, trifluoroacetate] ; what solubility value has been reported?
> 0.82 mg/mL

Suppose we examine the compound CNCC(=O)OCc1cccnc1N(C)C(=O)OC(C)[N+]1(CC(N)=O)CCC(c2ccc3[nH]c(-c4cn5ncnc5c(C)c4C)c(C(C)C)c3c2)CC1 (stereo not drawn) ; what solubility value has been reported?
> 1.51 mg/mL

Suppose we examine the compound Cc1c(-c2c(C(C)C)c3cc(C4CCN(CC(N)=O)CC4)ccc3n2C(=O)OC[C@@H]2CCCCN2)cn2ncnc2c1C ; what solubility value has been reported?
> 1.74 mg/mL

Suppose we examine the compound CNCC(=O)n1c(-c2cn3ncnc3c(C)c2C)c(C(C)C)c2cc(C3CCN(CC(N)=O)CC3)ccc21 [Example 5, ditrifluoroacetate] ; what solubility value has been reported?
> 2.84 mg/mL

Suppose we examine the compound Cc1c(-c2c(C(C)C)c3cc(C4CCN(CC(N)=O)CC4)ccc3n2CO)cn2ncnc2c1C ; what solubility value has been reported?
> 1.41 mg/mL

Suppose we examine the compound Cc1c(-c2c(C(C)C)c3cc(C4CCN(CC(N)=O)CC4)ccc3n2C(=O)OC[C@@H]2CCCN2)cn2ncnc2c1C ; what solubility value has been reported?
> 2.43 mg/mL

====

experiment: Solubility evaluation in aqueous buffer; type: physicochemical; settings: aqueous buffer, 25 °C, pH 6.5, aqueous buffer, thermodynamic from solid, aqueous buffer pH 6.5, 25° C., about 24 hours equilibration; read-out: Solubility (mg/mL) at 25° C. pH 6.5
Structures can show the parent of a compound that is named as a salt.
Parameter: solubility. Scope: all listed entries.

Guide cases for solubility, answers given:
Cc1c(-c2c(C(C)C)c3cc(C4CCN(CC(N)=O)CC4)ccc3n2C(=O)CN(C)C(=O)OCOP(=O)(O)O)cn2ncnc2c1C :: > 1.01 mg/mL
Cc1c(-c2c(C(C)C)c3cc(C4CCN(CC(N)=O)CC4)ccc3n2C(=O)OC[C@@H]2CCCN2)cn2ncnc2c1C :: > 2.44 mg/mL
Cc1c(-c2[nH]c3ccc(C4CCN(CC(N)=O)CC4)cc3c2C(C)C)cn2ncnc2c1C [Compound A, reference compound] :: < 0.01 mg/mL
Cc1c(-c2c(C(C)C)c3cc(C4CCN(CC(N)=O)CC4)ccc3n2SC[C@H](N)C(=O)O)cn2ncnc2c1C :: > 1.02 mg/mL
Cc1c(-c2[nH]c3ccc(C4CC[N+](COC(=O)N(C)CCOP(=O)(O)O)(CC(N)=O)CC4)cc3c2C(C)C)cn2ncnc2c1C (single isomer, unassigned) [Example 20, trifluoroacetate] :: > 2.08 mg/mL

Attention now shifts to the item below.
Suppose we examine the compound Cc1c(-c2c(C(C)C)c3cc(C4CCN(CC(N)=O)CC4)ccc3n2C(=O)OC[C@@H]2CCCCN2)cn2ncnc2c1C ; what solubility value has been reported?
> 1.34 mg/mL
